The origin of these recorded values is patent US4481141A.

assay: Light stability of mordanted dyes (HID fade, Table I); type: physicochemical; details: unmetallized dye; nickel layer/poly(4-vinylpyridine) receiver; 10 days HID, 50,000 lux, 38° C., pH 7
Reported values of % Fade (loss in density at λmax after irradiation) for individual entries
// return the numeric value with its unit appended

N#CC(N=Nc1ccc(S(N)(=O)=O)c2cccnc12)=C(O)c1ccccc1	1.0%
CC(O)=C(C#N)N=Nc1ccc(S(=O)(=O)Nc2cccc(S(N)(=O)=O)c2)c2cccnc12	1.0%
NS(=O)(=O)c1ccc(N=Nc2c(O)n(-c3ccccc3)n(-c3ccccc3)c2=O)c2ncccc12	1.0%
CC(O)=C(C#N)N=Nc1ccc(S(N)(=O)=O)c2cccnc12	1.5%
O=c1c(N=Nc2cccc3cccnc23)c(O)n(-c2ccccc2)n1-c1ccccc1	1.0%
Cc1nn(-c2ccccc2)c(O)c1N=Nc1cccc2cccnc12	3.0%
CC(C)(C)C(O)=C(C#N)N=Nc1ccc(S(=O)(=O)Nc2cccc(S(N)(=O)=O)c2)c2cccnc12	3.6%
O=c1oc2ccccc2c(O)c1N=Nc1cccc2cccnc12	0.0%
CC(O)=C(C#N)N=Nc1ccc(S(=O)(=O)Nc2cccc(O)c2)c2cccnc12	8.0%
N#CC(N=Nc1cccc2cccnc12)=C(O)c1ccccc1	2.0%

Note to self: % Fade (loss in density at λmax after irradiation) recorded for CC(O)=C(C#N)N=Nc1ccc(S(=O)(=O)Nc2cccc(C(=O)O)c2)c2cccnc12 was 7.2%

Note to self: % Fade (loss in density at λmax after irradiation) recorded for CC(C)(C)C(O)=C(C#N)N=Nc1ccc(S(N)(=O)=O)c2cccnc12 was 2.0%

###

Reported values of Dye Diffusion t1/2, Soln. for individual entries
assay: Dye diffusion, solution test; assay type: physicochemical; details: 0.0025M dye, pH 13.4

CC(O)=C(C#N)N=Nc1ccc(S(=O)(=O)Nc2cccc(O)c2)c2cccnc12 [D]	39 s
CC(O)=C(C#N)N=Nc1ccc(S(=O)(=O)Nc2cccc(S(N)(=O)=O)c2)c2cccnc12 [Compound C]	37 s

Note to self: Dye Diffusion t1/2, Soln. recorded for N#CC(N=Nc1ccc(S(N)(=O)=O)c2cccnc12)=C(O)c1ccccc1 [G] was 27 s

Note to self: Dye Diffusion t1/2, Soln. recorded for CC(C)(C)C(O)=C(C#N)N=Nc1ccc(S(N)(=O)=O)c2cccnc12 [E] was 29 s

Note to self: Dye Diffusion t1/2, Soln. recorded for CC(C)(C)C(O)=C(C#N)N=Nc1ccc(S(=O)(=O)Nc2cccc(S(N)(=O)=O)c2)c2cccnc12 [H] was 40 s

Note to self: Dye Diffusion t1/2, Soln. recorded for CC(O)=C(C#N)N=Nc1ccc(S(=O)(=O)Nc2cccc(C(=O)O)c2)c2cccnc12 [I] was 34 s

Note to self: Dye Diffusion t1/2, Soln. recorded for CC(O)=C(C#N)N=Nc1ccc(S(N)(=O)=O)c2cccnc12 [B] was 27 s

###

Experiment: Dye solution spectra of Ni-dye complexes (Table I)
Format: physicochemical
Conditions: 3:1 dioxane:water, pH 7, excess nickel ion
Description: The receiver was removed from the dye solution, washed in distilled water, placed in a pH 7.0 buffer solution and dried. Transmission spectra obtained on each sample of the mordanted dyes were normalized by computer to a density of 1.0. The characteristic wavelength of the dye, λ1/2 in nm, is the mean of the wavelength limits of the absorption envelope at half the maximum density. The HBW ("half band width") in nm is the range or distance between those limits. […]
metric: Spectra of Ni-Dye Complexes, Dye Solution, HBW (half band width) (nm)
Enter your answer as a number in nm; do not include the unit.

Note to self: Spectra of Ni-Dye Complexes, Dye Solution, HBW (half band width) recorded for N#CC(N=Nc1cccc2cccnc12)=C(O)c1ccccc1 was 70

###

Reported values of Spectra of Ni-Dye Complexes, Dye Solution, λ1/2 for individual entries
experiment: Dye solution spectra of Ni-dye complexes (Table I); format: physicochemical; details: 3:1 dioxane:water, pH 7, excess nickel ion
// return the numeric value with its unit appended

Example cases with answers are listed next.
NS(=O)(=O)c1ccc(N=Nc2c(O)n(-c3ccccc3)n(-c3ccccc3)c2=O)c2ncccc12	450 nm
CC(O)=C(C#N)N=Nc1ccc(S(=O)(=O)Nc2cccc(O)c2)c2cccnc12	451 nm
N#CC(N=Nc1ccc(S(N)(=O)=O)c2cccnc12)=C(O)c1ccccc1	460 nm

Note to self: Spectra of Ni-Dye Complexes, Dye Solution, λ1/2 recorded for CC(O)=C(C#N)N=Nc1ccc(S(=O)(=O)Nc2cccc(S(N)(=O)=O)c2)c2cccnc12 was 448 nm

Note to self: Spectra of Ni-Dye Complexes, Dye Solution, λ1/2 recorded for CC(O)=C(C#N)N=Nc1ccc(S(=O)(=O)Nc2cccc(C(=O)O)c2)c2cccnc12 was 451 nm

###

Reported values of Spectra of Ni-Dye Complexes, Mordant, HBW (half band width) for individual entries
test: Transmission spectra of mordanted dyes on receiving element (Table I); assay type: physicochemical; details: unmetallized dye; nickel sulfate layer/poly(4-vinylpyridine) mordant receiver; pH 7.0
Enter your answer as a number in nm; do not include the unit.

Example cases with answers are listed next.
O=c1c(N=Nc2cccc3cccnc23)c(O)n(-c2ccccc2)n1-c1ccccc1	77
O=c1oc2ccccc2c(O)c1N=Nc1cccc2cccnc12	85
CC(O)=C(C#N)N=Nc1ccc(S(N)(=O)=O)c2cccnc12	70
CC(C)(C)C(O)=C(C#N)N=Nc1ccc(S(=O)(=O)Nc2cccc(S(N)(=O)=O)c2)c2cccnc12	79
CC(O)=C(C#N)N=Nc1ccc(S(=O)(=O)Nc2cccc(O)c2)c2cccnc12	73

Note to self: Spectra of Ni-Dye Complexes, Mordant, HBW (half band width) recorded for CC(O)=C(C#N)N=Nc1ccc(S(=O)(=O)Nc2cccc(S(N)(=O)=O)c2)c2cccnc12 was 74

Note to self: Spectra of Ni-Dye Complexes, Mordant, HBW (half band width) recorded for CC(C)(C)C(O)=C(C#N)N=Nc1ccc(S(N)(=O)=O)c2cccnc12 was 69

Note to self: Spectra of Ni-Dye Complexes, Mordant, HBW (half band width) recorded for NS(=O)(=O)c1ccc(N=Nc2c(O)n(-c3ccccc3)n(-c3ccccc3)c2=O)c2ncccc12 was 77

Note to self: Spectra of Ni-Dye Complexes, Mordant, HBW (half band width) recorded for N#CC(N=Nc1ccc(S(N)(=O)=O)c2cccnc12)=C(O)c1ccccc1 was 75

###

experiment: Dye solution spectra of Ni-dye complexes (Table I); type: physicochemical; details: 3:1 dioxane:water, pH 7, excess nickel ion
metric: Spectra of Ni-Dye Complexes, Dye Solution, λ1/2 (nm)
Enter your answer as a number in nm; do not include the unit.

Note to self: Spectra of Ni-Dye Complexes, Dye Solution, λ1/2 recorded for CC(O)=C(C#N)N=Nc1ccc(S(N)(=O)=O)c2cccnc12 [B] was 445

Note to self: Spectra of Ni-Dye Complexes, Dye Solution, λ1/2 recorded for Cc1nn(-c2ccccc2)c(O)c1N=Nc1cccc2cccnc12 [N] was 444

Note to self: Spectra of Ni-Dye Complexes, Dye Solution, λ1/2 recorded for O=c1oc2ccccc2c(O)c1N=Nc1cccc2cccnc12 [O] was 429

###

test: Dye solution spectra of Ni-dye complexes (Table I); format: physicochemical; details: 3:1 dioxane:water, pH 7, excess nickel ion
Threshold 70 nm. Spectra of Ni-Dye Complexes, Dye Solution, HBW (half band width) below it: met. Spectra of Ni-Dye Complexes, Dye Solution, HBW (half band width) at it or above: not met.

INPUT: Is the reported Spectra of Ni-Dye Complexes, Dye Solution, HBW (half band width) for O=c1oc2ccccc2c(O)c1N=Nc1cccc2cccnc12 strictly below 70 nm?
OUTPUT: not met

INPUT: Is the reported Spectra of Ni-Dye Complexes, Dye Solution, HBW (half band width) for CC(O)=C(C#N)N=Nc1ccc(S(N)(=O)=O)c2cccnc12 strictly below 70 nm?
OUTPUT: met

INPUT: Is the reported Spectra of Ni-Dye Complexes, Dye Solution, HBW (half band width) for Cc1nn(-c2ccccc2)c(O)c1N=Nc1cccc2cccnc12 strictly below 70 nm?
OUTPUT: not met

###

test: Dye solution spectra of Ni-dye complexes (Table I); assay type: physicochemical; settings: 3:1 dioxane:water, pH 7, excess nickel ion
metric: Spectra of Ni-Dye Complexes, Dye Solution, λ1/2 (nm)
Enter your answer as a number in nm; do not include the unit.

CC(C)(C)C(O)=C(C#N)N=Nc1ccc(S(=O)(=O)Nc2cccc(S(N)(=O)=O)c2)c2cccnc12	450

Note to self: Spectra of Ni-Dye Complexes, Dye Solution, λ1/2 recorded for O=c1c(N=Nc2cccc3cccnc23)c(O)n(-c2ccccc2)n1-c1ccccc1 was 435

###

Reported values of Spectra of Ni-Dye Complexes, Dye Solution, HBW (half band width) for individual entries
experiment: Dye solution spectra of Ni-dye complexes (Table I); assay type: physicochemical; settings: 3:1 dioxane:water, pH 7, excess nickel ion
Enter your answer as a number in nm; do not include the unit.

Example cases with answers are listed next.
CC(O)=C(C#N)N=Nc1ccc(S(=O)(=O)Nc2cccc(O)c2)c2cccnc12 [D]	70
N#CC(N=Nc1ccc(S(N)(=O)=O)c2cccnc12)=C(O)c1ccccc1 [G]	70
O=c1c(N=Nc2cccc3cccnc23)c(O)n(-c2ccccc2)n1-c1ccccc1 [L]	72
CC(O)=C(C#N)N=Nc1ccc(S(=O)(=O)Nc2cccc(C(=O)O)c2)c2cccnc12 [I]	68
CC(C)(C)C(O)=C(C#N)N=Nc1ccc(S(N)(=O)=O)c2cccnc12 [E]	72

Note to self: Spectra of Ni-Dye Complexes, Dye Solution, HBW (half band width) recorded for CC(C)(C)C(O)=C(C#N)N=Nc1ccc(S(=O)(=O)Nc2cccc(S(N)(=O)=O)c2)c2cccnc12 [H] was 70

Note to self: Spectra of Ni-Dye Complexes, Dye Solution, HBW (half band width) recorded for NS(=O)(=O)c1ccc(N=Nc2c(O)n(-c3ccccc3)n(-c3ccccc3)c2=O)c2ncccc12 [M] was 72

Note to self: Spectra of Ni-Dye Complexes, Dye Solution, HBW (half band width) recorded for CC(O)=C(C#N)N=Nc1ccc(S(=O)(=O)Nc2cccc(S(N)(=O)=O)c2)c2cccnc12 [Compound C] was 70

Note to self: Spectra of Ni-Dye Complexes, Dye Solution, HBW (half band width) recorded for CC(O)=C(C#N)N=Nc1cccc2cccnc12 [A] was 68
